Give measured kinact/KI for each item. Keep answers brief.
- tested_target: hOAT (Homo sapiens)
- Construct: made in house
- Sequence (P04181 26-439): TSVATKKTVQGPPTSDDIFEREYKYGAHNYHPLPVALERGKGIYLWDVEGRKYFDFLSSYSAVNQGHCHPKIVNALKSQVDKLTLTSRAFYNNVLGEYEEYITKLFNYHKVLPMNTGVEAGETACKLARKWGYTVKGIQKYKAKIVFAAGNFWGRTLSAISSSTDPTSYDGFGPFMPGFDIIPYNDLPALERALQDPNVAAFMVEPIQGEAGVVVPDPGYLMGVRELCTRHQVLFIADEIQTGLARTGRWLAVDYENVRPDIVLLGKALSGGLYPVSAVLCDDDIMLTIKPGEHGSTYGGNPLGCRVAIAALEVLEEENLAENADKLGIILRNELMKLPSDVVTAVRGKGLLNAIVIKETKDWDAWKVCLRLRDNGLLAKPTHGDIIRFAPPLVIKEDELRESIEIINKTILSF
- assay_overview: Coupled enzyme assay, time-dependent inactivation of hOAT
- Type: biochemical
- settings: read-out: kinact/KI (converted)
Where a name gives a salt, the structure may show the parent alone.
The reply should contain only the number, in M⁻¹ s⁻¹.

What value of measured kinact/KI is listed for N[C@H]1C[C@@H](C(=O)O)C[C@@H]1F [Compound 1, reference compound] ?
1

Follow-up entry: N[C@H]1C=C(C(=O)O)CC[C@@H]1F [Compound 8, hydrochloride]
42.7

What do we get for N[C@H]1CC(C(=O)O)=CCC1(F)F [Compound 11, hydrochloride] ?
2.5

For N[C@H]1CC(C(=O)O)=CC[C@@H]1F [Compound 10, hydrochloride] then?
0.283

Also, N[C@H]1C=C(C(=O)O)CCC1(F)F [Compound 9, hydrochloride] please.
339
